Source: paper PMC11331505

# tested_system: E. coli RecA (E. coli, UniProt P0A7G6 2-353)
# Sequence (P0A7G6 2-353): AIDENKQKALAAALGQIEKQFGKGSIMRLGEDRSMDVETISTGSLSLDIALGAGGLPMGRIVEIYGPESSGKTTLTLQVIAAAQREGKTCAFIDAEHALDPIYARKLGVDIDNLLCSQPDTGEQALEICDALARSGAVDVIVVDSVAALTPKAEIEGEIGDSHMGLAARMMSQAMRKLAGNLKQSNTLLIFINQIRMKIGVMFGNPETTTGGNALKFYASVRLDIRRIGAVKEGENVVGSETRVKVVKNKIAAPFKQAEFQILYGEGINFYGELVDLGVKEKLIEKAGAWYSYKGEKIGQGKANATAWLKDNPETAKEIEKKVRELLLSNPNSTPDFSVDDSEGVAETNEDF
# assay_info: PIFE (Cy3 fluorescence enhancement); 1 nM DNA; approximation model; HDGF assays: 46 mM NaCl, 0.9 mM KCl, 3.3 mM Na2HPO4, 0.66 mM KH2PO4, pH 7.4; at least 1 h on ice; 1-10 nM Cy3 DNA, 10 pM-100 nM protein; RecA dsDNA control at pH 7.5
# experimental_setup: label: Cy3
endpoint_label: pKd
Kindly note that pKd refers to -log10 of the concentration in mol/L and answer with the value alone.

Input: Tell me the measured pKd of TTTTTTTTTTTTTTTTTTTTTTTTTTTTTTTTTTTTTTTT (ssDNA) [poly(dT)40 ssDNA] , please.
Output: 7.46
